Measured values drawn from ChEMBL document CHEMBL3875173 for this set.

Biological target: ABCG2 (Homo sapiens)
Experiment: Inhibition of recombinant human GFP-fused ABCG2 expressed in MDCK2 cells assessed as reduction in pheophorbide A efflux at 10 uM preincubated for 30 mins followed by pheophorbide A addition measured after 2 hrs by flow cytometry relative to XR9577
Type: cell-based, MDCK-II
Conditions: MDCK2 cells expressing recombinant human GFP-fused ABCG2, probe pheophorbide A, read-out: Imax
Outcome Measure: Emax at 2 h, 10 µM (%)

- CCCc1ccc(C(=O)Nc2ccccc2-c2nnn(-c3ccccc3)n2)cc1: 85
- COc1ccc(C(=O)Nc2ccccc2-c2nnn(-c3ccccc3)n2)cc1OC: 86
- COc1ccc(-n2nnc(-c3ccccc3NC(=O)c3ccccc3[N+](=O)[O-])n2)cc1: 61

I. CCCc1ccc(C(=O)Nc2ccccc2-c2nnn(-c3ccc(O)cc3)n2)cc1
II. CCCc1ccc(C(=O)Nc2ccccc2-c2nnn(-c3ccc(SC)cc3)n2)cc1
Asked: Just curious, which one has the larger Emax at 2 h, 10 µM reading, I or II ? Which one? Tell me its label.
Given back: I
(I: 107%, II: 69%)

----------
Target: ATP-dependent translocase ABCB1 (Homo sapiens, UniProt P08183)
Sequence (P08183 whole entry): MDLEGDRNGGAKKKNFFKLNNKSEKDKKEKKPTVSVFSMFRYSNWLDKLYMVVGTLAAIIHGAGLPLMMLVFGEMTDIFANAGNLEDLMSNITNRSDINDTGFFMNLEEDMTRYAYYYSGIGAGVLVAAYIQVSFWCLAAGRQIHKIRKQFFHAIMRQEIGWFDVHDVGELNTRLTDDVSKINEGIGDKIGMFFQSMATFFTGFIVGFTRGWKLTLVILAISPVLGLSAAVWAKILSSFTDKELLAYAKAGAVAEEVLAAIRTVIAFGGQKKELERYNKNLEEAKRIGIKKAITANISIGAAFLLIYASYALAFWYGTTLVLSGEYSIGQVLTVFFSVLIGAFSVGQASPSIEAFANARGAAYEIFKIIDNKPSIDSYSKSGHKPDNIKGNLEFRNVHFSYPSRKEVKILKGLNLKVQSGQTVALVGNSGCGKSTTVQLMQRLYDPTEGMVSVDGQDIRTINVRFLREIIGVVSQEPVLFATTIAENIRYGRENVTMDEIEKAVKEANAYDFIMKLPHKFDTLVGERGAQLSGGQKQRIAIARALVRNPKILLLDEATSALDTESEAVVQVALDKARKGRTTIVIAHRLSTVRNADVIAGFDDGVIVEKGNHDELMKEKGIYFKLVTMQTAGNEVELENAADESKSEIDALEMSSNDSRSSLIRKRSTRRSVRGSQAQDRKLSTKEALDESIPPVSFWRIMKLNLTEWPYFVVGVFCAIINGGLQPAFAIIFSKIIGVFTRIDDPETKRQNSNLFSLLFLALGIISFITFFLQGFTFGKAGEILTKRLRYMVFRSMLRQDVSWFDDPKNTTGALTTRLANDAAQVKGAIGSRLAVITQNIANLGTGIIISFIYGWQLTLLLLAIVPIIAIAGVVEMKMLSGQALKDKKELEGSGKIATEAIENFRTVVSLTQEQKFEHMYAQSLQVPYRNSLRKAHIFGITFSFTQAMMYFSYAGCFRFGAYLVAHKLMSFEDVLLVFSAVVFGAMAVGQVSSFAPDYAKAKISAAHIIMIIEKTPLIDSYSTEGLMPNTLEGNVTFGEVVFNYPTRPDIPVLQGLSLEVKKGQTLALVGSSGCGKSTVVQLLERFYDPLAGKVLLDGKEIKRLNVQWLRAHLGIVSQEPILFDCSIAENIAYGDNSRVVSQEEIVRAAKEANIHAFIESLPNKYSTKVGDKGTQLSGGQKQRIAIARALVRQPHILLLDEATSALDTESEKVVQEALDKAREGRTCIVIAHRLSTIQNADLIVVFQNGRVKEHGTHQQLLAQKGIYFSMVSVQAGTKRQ
Experiment: Inhibition of ABCB1 in human A2780/ADR cells assessed as reduction in calcien-AM efflux preincubated for 30 mins followed by calcien-AM addition measured immediately at 60 sec time interval for 60 mins by fluorescence assay
Outcome Measure: IC50 (µM)

Some compounds with known IC50 results, for comparison:
* COc1ccc(C(=O)Nc2ccccc2-c2nnn(-c3ccc(SC)cc3)n2)cc1 | 4.2
* COc1ccc(C(=O)Nc2ccccc2-c2nnn(-c3ccc(OC)cc3)n2)cc1 | 2.88
* COc1ccc(C(=O)Nc2ccccc2-c2nnn(-c3ccc(OC)c(OC)c3)n2)cc1 | 3.2
* CSc1ccc(-n2nnc(-c3ccccc3NC(=O)c3ccccc3[N+](=O)[O-])n2)cc1 | 9.78

I. COc1ccc(C(=O)Nc2ccccc2-c2nnn(-c3ccccc3)n2)cc1
II. O=C(Nc1ccccc1-c1nnn(-c2ccccc2)n1)c1cccc([N+](=O)[O-])c1
III. CCCc1ccc(C(=O)Nc2ccccc2-c2nnn(-c3ccc(O)cc3)n2)cc1
Asked: Put the compounds in ascending order of IC50. Respond with an ordered listing of the labels, as requested.
Given back: III, I, II

----------
Molecular target: ABCG2 (Homo sapiens, UniProt Q9UNQ0)
Sequence (Q9UNQ0 whole entry, the tested form may be a part): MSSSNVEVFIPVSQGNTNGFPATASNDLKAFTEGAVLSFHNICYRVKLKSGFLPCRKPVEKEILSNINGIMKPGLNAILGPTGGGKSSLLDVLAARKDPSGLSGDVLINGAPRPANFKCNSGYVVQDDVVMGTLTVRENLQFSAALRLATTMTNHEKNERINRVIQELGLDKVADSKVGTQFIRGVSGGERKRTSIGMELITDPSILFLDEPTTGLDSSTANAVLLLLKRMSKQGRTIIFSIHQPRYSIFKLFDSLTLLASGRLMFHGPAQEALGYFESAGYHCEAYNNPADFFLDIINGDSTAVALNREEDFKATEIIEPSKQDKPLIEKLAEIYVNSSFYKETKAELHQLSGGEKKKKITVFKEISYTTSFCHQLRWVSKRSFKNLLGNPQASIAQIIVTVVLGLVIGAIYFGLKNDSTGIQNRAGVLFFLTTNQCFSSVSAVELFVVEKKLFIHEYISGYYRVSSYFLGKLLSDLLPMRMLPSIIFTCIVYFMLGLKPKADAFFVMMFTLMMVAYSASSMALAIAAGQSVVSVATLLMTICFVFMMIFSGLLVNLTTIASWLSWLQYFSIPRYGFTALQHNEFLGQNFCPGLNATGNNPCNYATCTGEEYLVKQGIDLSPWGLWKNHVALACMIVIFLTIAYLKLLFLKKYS
Assay: Inhibition of recombinant human GFP-fused ABCG2 expressed in MDCK2 cells assessed as reduction in Hoechst 33342 efflux at 10 uM preincubated for 30 mins followed by Hoechst 33342 addition measured immediately at 60 sec time interval for 120 mins by fluorescence assay relative to XR9577
Type: cell-based, MDCK-II
Conditions: MDCK2 cells expressing recombinant human GFP-fused ABCG2, probe Hoechst 33342, read-out: Imax
Outcome Measure: Emax at 2 h, 10 µM (%)

Some compounds with known Emax at 2 h, 10 µM results, for comparison:
* O=C(Nc1ccccc1-c1nnn(-c2ccccc2)n1)c1ccccc1[N+](=O)[O-] | 57
* COc1ccc(C(=O)Nc2ccccc2-c2nnn(-c3ccc(OC)c(OC)c3)n2)cc1 | 100

P. COc1ccc(C(=O)Nc2ccccc2-c2nnn(-c3ccccc3)n2)cc1OC
Q. CCOc1ccc(-n2nnc(-c3ccccc3NC(=O)c3ccc(OC)cc3)n2)cc1
Asked: Pick one: P or Q . Which one has the lower reported Emax at 2 h, 10 µM? Which one? Tell me its label.
Given back: Q
